# Tested on: polarized colon cancer T84 cells
# EXPERIMENT_DESCRIPTION: Transepithelial electrical resistance (TEER) on polarized T84 cells
# Assay type: cell-based
# EXPERIMENTAL_PARAMETERS: added for 1 hour to the apical side of transwell cultures
REPORTED_PROPERTY: Effect on the TEER

N186D (protein) MKVSALKEKVSALKEKVSALKEKVSALKEKVSALKEGSGGGSGGGSGGGSNSIALKNNTLWTGPKPEANCIIEYGKQNPDSKLTLILVKNGGIVNGYVTLMGASDYVNTLFKDKNVSINVELYFDATGHILPDSSSLKTDLELKYKQTADFSARGFMPSTTAYPFVLPNAGTHNENYIFGQCYYKASDGALFPLEVTVMLNKRLPDSRTSYVMTFLWSLNAGLAPETTQATLITSPFTFSYIREDD : intermediate effects
E299V (protein) MKVSALKEKVSALKEKVSALKEKVSALKEKVSALKEGSGGGSGGGSGGGSNSIALKNNTLWTGPKPEANCIIEYGKQNPDSKLTLILVKNGGIVNGYVTLMGASDYVNTLFKNKNVSINVELYFDATGHILPDSSSLKTDLELKYKQTADFSARGFMPSTTAYPFVLPNAGTHNENYIFGQCYYKASDGALFPLEVTVMLNKRLPDSRTSYVMTFLWSLNAGLAPVTTQATLITSPFTFSYIREDD : intermediate effects
